test: Inhibition of [3H]leucine uptake into CHO cells; type: functional, cell-based, Cricetulus griseus; conditions: cho
reported.property: IC50

| compound | IC50 |
| --- | --- |
| CC(C)CC1CC1(CN)C(=O)O (stereo in doubt; 36) | > 2.49 mM |
| CCC(CC)C1CC1(CN)C(=O)O (stereo in doubt) | > 2.49 mM |
| CC(C)CC1CC1(CN)C(=O)O (stereo in doubt) | > 8.3 mM |

Could you now consider this next compound?
Given the entry CCC(CC)C1CC1(CN)C(=O)O (stereo in doubt; 12) , report its measured IC50.
> 8.3 mM

----------
Reported pIC50 by item:
assay: Inhibition of [3H]leucine uptake into CHO cells; assay type: functional, cell-based, Cricetulus griseus; conditions: Cricetulus griseus, CHO, 2 min
pIC50: −log10 of the molar value.

As a guide, the following entries are already answered.
| molecule | reported.property | test.result |
| --- | --- | --- |
| NCC1(C(=O)O)CC12CCCC2 (stereo unspecified) | pIC50 | < 2.08 |
| NCC1(C(=O)O)CC1 | pIC50 | < 2.08 |
| NCC1(C(=O)O)CC12CCCCC2 (stereo unspecified) | pIC50 | < 2.60 |
| CC(C)C1CC1(CN)C(=O)O (stereo unspecified) | pIC50 | < 2.08 |

Given the entry CCCC1(CCC)CC1(CN)C(=O)O (stereo unspecified) , report its measured pIC50.
< 2.60

Entry to check: NCC1(C(=O)O)CC12CCC2 (stereo unspecified)
< 2.60
